Tested on: DU-145
PROCEDURE_DETAILS: NCI tumour cell line growth inhibition, 48 h
Active and inactive are the calls of the source. No stated cut-off is given here; in the data, active = GI50 up to about 1.1 µM and inactive = higher. Where a SMILES comes first, the peptide text is derived from it.
Valid outcomes are listed here; reply with one: True (active), False (inactive)

Cc1cccc(/C=N\NC(=S)N2CCCCC2)n1 : True
N#CSc1[nH]cnc1C(N)=O : False
CNC(=O)CNC(=O)C(NC(=O)CNC(=O)C1CCCN1C(=O)C(C)NC(=O)C(NC(C)=O)C(C)C)C(C)C (stereo unspecified) (Ac-VAPGVG-NHMe; configuration not given here) : False
O=[N+]([O-])c1cccc2nc3ccccc3c(NCCNCCO)c12 : True

Attention now turns to another entry.
What was the test verdict on Nc1nc2c(=O)c3ccccc3sc2s1 ?
False
